Biological target: Amine oxidase [flavin-containing] A (Rattus norvegicus, UniProt P21396)
Sequence (P21396 whole entry): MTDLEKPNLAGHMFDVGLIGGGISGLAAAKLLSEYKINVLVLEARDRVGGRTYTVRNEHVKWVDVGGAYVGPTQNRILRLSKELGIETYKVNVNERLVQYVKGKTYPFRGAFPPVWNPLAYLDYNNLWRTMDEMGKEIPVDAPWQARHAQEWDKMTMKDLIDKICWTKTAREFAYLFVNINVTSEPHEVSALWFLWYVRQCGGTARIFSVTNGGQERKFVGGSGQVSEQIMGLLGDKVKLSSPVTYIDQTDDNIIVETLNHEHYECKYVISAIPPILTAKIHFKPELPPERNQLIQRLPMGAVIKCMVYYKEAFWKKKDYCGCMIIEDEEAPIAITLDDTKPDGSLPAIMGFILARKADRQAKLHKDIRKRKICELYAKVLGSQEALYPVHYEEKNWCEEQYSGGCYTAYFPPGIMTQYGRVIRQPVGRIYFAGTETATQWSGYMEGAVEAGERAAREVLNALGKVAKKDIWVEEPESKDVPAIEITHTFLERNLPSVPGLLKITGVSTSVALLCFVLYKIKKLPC
pIC50: −log10 of the molar value.
experimentalReadout: pIC50

compound	pIC50
COc1cc(Br)c2oc(C3CCNCC3)cc2c1 [BROFAROMINE]	8.30
Cc1c(C)c2ccc(OCc3cc(C4CC4)on3)cc2oc1=O	5.15
Cc1nnc(COc2ccc3c(C)c(C)c(=O)oc3c2)o1	5.25

---

Biological target: Amine oxidase [flavin-containing] B (Rattus norvegicus, UniProt P19643)
Sequence (P19643 whole entry): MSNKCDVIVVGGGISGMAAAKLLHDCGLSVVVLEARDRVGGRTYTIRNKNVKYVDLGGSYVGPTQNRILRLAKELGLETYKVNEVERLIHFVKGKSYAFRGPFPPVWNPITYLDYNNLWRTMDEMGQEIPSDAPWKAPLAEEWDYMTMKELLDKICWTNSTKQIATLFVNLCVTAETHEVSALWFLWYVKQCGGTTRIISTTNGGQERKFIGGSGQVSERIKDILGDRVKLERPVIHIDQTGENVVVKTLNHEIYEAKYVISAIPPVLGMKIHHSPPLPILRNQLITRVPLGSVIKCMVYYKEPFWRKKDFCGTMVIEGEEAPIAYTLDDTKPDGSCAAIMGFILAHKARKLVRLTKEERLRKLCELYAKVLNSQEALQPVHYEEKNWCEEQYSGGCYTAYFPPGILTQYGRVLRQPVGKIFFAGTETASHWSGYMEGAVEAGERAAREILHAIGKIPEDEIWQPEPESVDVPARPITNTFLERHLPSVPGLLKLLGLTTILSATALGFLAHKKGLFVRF
experimentalReadout: IC50 (nM)

Reference set (3 entries):
compound	IC50 (nM)
Cc1c(C)c2ccc(OCc3ccccn3)cc2oc1=O	9
Cc1c(C)c2ccc(OCc3csc(C(C)C)n3)cc2oc1=O	1.4
Cc1c(C)c2ccc(OCc3cc(C4CC4)on3)cc2oc1=O	0.8

I. CCS(=O)(=O)Oc1ccc2c(C)c(C)c(=O)oc2c1 [ESUPRONE]
II. COc1ccc2c(C)c(C)c(=O)oc2c1
Query block: Would you kindly point out which of I and II has the smaller IC50 figure? Please identify the chosen entry by its label.
Result block: II

---

Biological target: Amine oxidase [flavin-containing] B (Rattus norvegicus)
Sequence (P19643 whole entry): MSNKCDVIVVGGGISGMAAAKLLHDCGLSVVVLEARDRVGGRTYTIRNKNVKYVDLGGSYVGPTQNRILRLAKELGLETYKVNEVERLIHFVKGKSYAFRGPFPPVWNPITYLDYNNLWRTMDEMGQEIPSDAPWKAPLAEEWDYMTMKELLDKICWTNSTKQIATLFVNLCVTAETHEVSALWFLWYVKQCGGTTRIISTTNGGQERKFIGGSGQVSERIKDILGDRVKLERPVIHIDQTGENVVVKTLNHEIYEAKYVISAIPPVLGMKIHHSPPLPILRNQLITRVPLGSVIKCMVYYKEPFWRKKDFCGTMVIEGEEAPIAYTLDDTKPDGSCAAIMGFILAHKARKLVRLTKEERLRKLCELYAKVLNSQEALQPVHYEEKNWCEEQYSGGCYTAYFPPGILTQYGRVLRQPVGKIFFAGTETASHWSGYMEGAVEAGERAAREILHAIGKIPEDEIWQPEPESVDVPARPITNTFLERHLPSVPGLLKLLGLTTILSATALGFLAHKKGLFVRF
pIC50: −log10 of the molar value.
# key: entry, value: pIC50

smilesStructure	target	pIC50
Cc1c(C)c2ccc(OS(C)(=O)=O)cc2oc1=O	Amine oxidase [flavin-containing] B (Rattus norvegicus)	< 5.00

Query block: For the compound shown here, `CCCCCCCCS(=O)(=O)Oc1ccc2c(C)c(C)c(=O)oc2c1` , give the reported pIC50.
Result block: < 5.00

Query block: Next compound: `Cc1c(C)c2ccc(O)cc2oc1=O`
Result block: < 5.00
